molecular target: T1, anti-CD28 scFv (VH-linker 1-VL) (biotinylated (site not stated)); test: phage ELISA; biotinylated scFv on neutravidin plate; anti-M13-HRP;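 further: crude clonal phage supernatant added to wells pre-incubated with soluble CD28 protein or only blocking buffer, then washed, bound phage read out with an HRP-linked anti-M13 antibody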
T1 construct: Captured as biotinylated scFv on neutravidin coated plates in the phage ELISA
T1 sequence (scFv, as listed by the source): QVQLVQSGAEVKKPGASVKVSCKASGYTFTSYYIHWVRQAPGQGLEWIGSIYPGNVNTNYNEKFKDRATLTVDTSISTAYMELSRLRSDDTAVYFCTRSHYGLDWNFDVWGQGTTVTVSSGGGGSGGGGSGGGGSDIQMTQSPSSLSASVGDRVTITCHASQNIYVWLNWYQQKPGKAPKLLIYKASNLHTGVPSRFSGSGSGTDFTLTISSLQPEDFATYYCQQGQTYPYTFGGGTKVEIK
Measurement kind: CD28 scFv signal

INSERT INTO assay_data (binder, numeric_result) VALUES
  ('MDWCPRYLWAECFN (on phage (pIII fusion)) [Phage-279 clonal phage peptide]', 2.74),
  ('MDWCPKFLWDECFA (on phage (pIII fusion)) [Phage-304 clonal phage peptide]', 2.41),
  ('MDWCPRDLWTECFS (on phage (pIII fusion)) [Phage-305 clonal phage peptide]', 2.4),
  ('MDWCPTYLWNECFN (on phage (pIII fusion)) [Phage-320 clonal phage peptide]', 2.24),
  ('MDWCPRDRWSDCFN (on phage (pIII fusion)) [Phage-227 clonal phage peptide]', 0.102),
  ('MDWCPRYLWHECFS (on phage (pIII fusion)) [Phage-235 clonal phage peptide]', 2.65),
  ('MDWCPRDRWVDCFF (on phage (pIII fusion)) [Phage-223 clonal phage peptide]', 1.58),
  ('MDWCPRSLWDYCFA (on phage (pIII fusion)) [Phage-294 clonal phage peptide]', 2.49);
